# System: BRAF
# CONDITION DETAILS: concentration: 1 μM, replicates: in singlicate; n = 1;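 also: KINOMEscan kinase panel screen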

COMPOUND: Cn1cc(-c2ccc3c(c2)CCN3C(=O)Cc2cc(F)cc(F)c2F)c2c(N)ncnc21 [GSK2634140]
UNIT TAG: %
%Inh: 0
--
COMPOUND: CCNc1nccc(-c2c(-c3ccc(F)cc3)ncn2C2CCN(C)CC2)n1
UNIT TAG: %
%Inh: 0
--
COMPOUND: CCNC(=O)/C=C/c1n[nH]c2cc(Sc3ccccc3C(=O)NC)ccc12
UNIT TAG: %
%Inh: 11
--
COMPOUND: CN1CCN(Cc2ccc(NC(=O)Nc3ccc(N(C)c4ccnc(Nc5ccc(CS(C)(=O)=O)cc5)n4)cc3)cc2)CC1.Cl [GW827654]
UNIT TAG: %
%Inh: 0

* * *

# System: CAMK2B
# CONDITION DETAILS: concentration: 1 μM, replicates: in singlicate; n = 1
MEASURED PARAMETER: %Inh

MOLECULE: CN(C)CCNS(=O)(=O)c1ccc(-c2ccnc3[nH]ccc23)cc1
OBS VALUE: 0%

MOLECULE: Cn1cc(-c2cnc(N)c3c(-c4ccc5c(c4)CCN5C(=O)Cc4ccccc4)csc23)cn1
OBS VALUE: 12%

MOLECULE: CS(=O)(=O)c1cccc(CNc2nc(Nc3ccc4c(c3)CCC(=O)N4)ncc2C(F)(F)F)c1
OBS VALUE: 0%

MOLECULE: NCCC(NC(=O)c1cc(Br)c(-c2ccnc3[nH]ccc23)s1)c1ccccc1.O=C(O)C(F)(F)F.O=C(O)C(F)(F)F (stereo not shown)
OBS VALUE: 0%

MOLECULE: O=C(Nc1n[nH]c2nc(-c3cccc(O)c3)ccc12)C1CC1
OBS VALUE: 0%

MOLECULE: Cc1cccc(Nc2nc(N[C@H]3CCCC[C@H]3N)ncc2C(N)=O)c1.Cl
OBS VALUE: 0%

MOLECULE: Cc1ccc(O)cc1Nc1ccnc2ccc(C(C)(C)C)cc12
OBS VALUE: 10%

MOLECULE: COC(=O)Nc1nc2cc(Oc3ccc(NC(=O)Nc4cccc(SC)c4)cc3)ccc2[nH]1.Cl
OBS VALUE: 28%

MOLECULE: COc1cccc(NC(=O)NCCNc2ccnc(Nc3ccc(F)cc3)n2)c1
OBS VALUE: 0%

MOLECULE: COc1cccc2c(-c3ccncc3)c(-c3ccc(F)cc3)nn12
OBS VALUE: 0%

MOLECULE: CC(C)c1nc(-c2ccc(F)c(NS(=O)(=O)c3c(F)cccc3F)c2)c(-c2ccnc(Nc3ccc(N4CCOCC4)nc3)n2)s1
OBS VALUE: 0%

MOLECULE: Cc1cccc(Nc2nc(NCCN)ncc2C(N)=O)c1
OBS VALUE: 0%

MOLECULE: CNc1nccc(-c2ccc3c(N)n[nH]c3c2)n1
OBS VALUE: 31%

MOLECULE: N#CC1(c2cccc(C(=O)Nc3cccc(Oc4ccc5nc(NC(=O)C6CC6)sc5n4)c3)c2)CC1
OBS VALUE: 26%

MOLECULE: CC(C)(C)c1ccc(C(=O)Nc2cn3cc(-n4ccnc4)ccc3n2)cc1
OBS VALUE: 0%

MOLECULE: O=C(Nc1n[nH]c2nc(-c3ccccc3O)ccc12)C1CC1
OBS VALUE: 0%

MOLECULE: COc1cccc(CC(=O)N2CCc3cc(-c4cn(C)c5ncnc(N)c45)ccc32)c1
OBS VALUE: 0%

MOLECULE: CN1CCN(Cc2ccc(NC(=O)Nc3ccc(N(C)c4ccnc(Nc5ccc(CS(C)(=O)=O)cc5)n4)cc3)cc2)CC1.Cl
OBS VALUE: 0%

MOLECULE: Cc1ccc(Nc2ccnc(Nc3ccc(C)c(F)c3)n2)cc1O.Cl
OBS VALUE: 95.3%

MOLECULE: CCOc1nccc(-c2c(-c3ccc(F)cc3)ncn2C2CCNCC2)n1
OBS VALUE: 0%

MOLECULE: Cn1cc(-c2ccc3c(c2)CCN3C(=O)Cc2cc(F)cc(F)c2F)c2c(N)ncnc21
OBS VALUE: 0%

MOLECULE: CN(c1ccc(NC(=O)Nc2cccc(Cl)c2)cc1)c1ccnc(N)n1.Cl
OBS VALUE: 0%

MOLECULE: Cc1ccc(NC(=O)c2ccnc(N3CCCCC3)c2)cc1-c1ccc(C(=O)NCC2CC2)cc1
OBS VALUE: 0%

MOLECULE: Cc1cc(-c2ccnc(Nc3cccc(C#N)c3)n2)cc(C)c1O
OBS VALUE: 11%

MOLECULE: Nc1cccc(-c2ccc3c(N)n[nH]c3c2)c1
OBS VALUE: 0%

* * *

Overview of recorded %Inh for various compounds
# Tested on: PIP5K1A
# CONDITION DETAILS: concentration: 1 μM, replicates: in singlicate; n = 1

CHEMICAL STRING: COc1cc(Nc2nccc(N3CCC(NS(=O)(=O)c4ccc(NC(C)=O)cc4)CC3)n2)cc(OC)c1OC
TEST SYSTEM: PIP5K1A
UNIT TAG: %
%Inh: 11
//
CHEMICAL STRING: CN(c1ccc(NC(=O)Nc2cccc(Cl)c2)cc1)c1ccnc(N)n1.Cl
TEST SYSTEM: PIP5K1A
UNIT TAG: %
%Inh: 12
//
CHEMICAL STRING: CSc1ccc(NC2=C(c3ccc(Cl)cc3)C(=O)NC2=O)cc1
TEST SYSTEM: PIP5K1A
UNIT TAG: %
%Inh: 0
//
CHEMICAL STRING: COc1cccc(-c2nc(-c3ccccc3)[nH]c2-c2ccncc2)c1
TEST SYSTEM: PIP5K1A
UNIT TAG: %
%Inh: 0
//
CHEMICAL STRING: COc1cccc2c(-c3ccncc3)c(-c3ccc(F)cc3)nn12
TEST SYSTEM: PIP5K1A
UNIT TAG: %
%Inh: 0
//
CHEMICAL STRING: Cl.N#CCc1ccc(Nc2nccc(Nc3ccc(Oc4ccccc4)cc3)n2)cc1
TEST SYSTEM: PIP5K1A
UNIT TAG: %
%Inh: 26
//
CHEMICAL STRING: COc1cccc(NC(=O)NCCNc2ccnc(Nc3ccc(F)cc3)n2)c1
TEST SYSTEM: PIP5K1A
UNIT TAG: %
%Inh: 40
//
CHEMICAL STRING: CN(c1ccc2c(c1)nc(NCc1ccccc1)n2C)c1ccnc(Nc2ccc(CS(C)(=O)=O)cc2)n1.Cl
TEST SYSTEM: PIP5K1A
UNIT TAG: %
%Inh: 23
//
CHEMICAL STRING: CC(C)(C)c1ccc(C(=O)Nc2cn3cc(-n4ccnc4)ccc3n2)cc1
TEST SYSTEM: PIP5K1A
UNIT TAG: %
%Inh: 2

* * *

# Test system: MST1R
# CONDITION DETAILS: concentration: 1 μM, replicates: in singlicate; n = 1

COMPOUND: CN(c1ccc(NC(=O)Nc2cccc(Cl)c2)cc1)c1ccnc(N)n1.Cl [GW830707]
%Inh: 22%
//
COMPOUND: Nc1ncc(-c2cn[nH]c2)c2scc(-c3ccc4c(c3)CCN4C(=O)Cc3ccccc3)c12 [GSK2593067]
%Inh: 27%
//
COMPOUND: CN(C)c1ncnc2nc[nH]c12 [SKF-31736]
%Inh: 0%
//
COMPOUND: CN(C)CCOc1ccc(-c2cc(-c3ccc(Cl)c(O)c3)c(-c3ccncc3)[nH]2)cc1.Cl.Cl [SB-684387]
%Inh: 34%
//
COMPOUND: CC(C)(C)c1ccc(C(=O)Nc2cn3cc(-n4ccnc4)ccc3n2)cc1
%Inh: 28%
//
COMPOUND: O=C(O)C(F)(F)F.O=c1[nH]ccc2nc(N[C@@H]3CCNC3)nc(Nc3ccc4c(c3)S(=O)(=O)CC4)c12 [GSK2181306]
%Inh: 1%
//
COMPOUND: Cc1ccc(C)c(NC(=O)Nc2ccc(C)c(-c3ccc(C(=O)Nc4ccncc4)cc3)c2)c1 [GSK1398473]
%Inh: 26%
//
COMPOUND: Cc1ccccc1CC(=O)N1CCc2cc(-c3cn(C)c4ncnc(N)c34)ccc21 [GSK2603346]
%Inh: 46%
//
COMPOUND: Cc1nn2c(=O)cc(N3CCO[C@H](C)C3)nc2n1Cc1cccc(Cl)c1Cl [GSK2373693]
%Inh: 0%
//
COMPOUND: Fc1cc(Cl)ccc1Nc1ccnc2cc(-c3ccc(CN4CCOCC4)o3)ccc12 [GW560109]
%Inh: 0%

* * *

# Test system: ABL2
# CONDITION DETAILS: concentration: 1 μM, replicates: in singlicate; n = 1
MEASURED PARAMETER: %Inh (%)

MOLECULE: Nc1ncnc2scc(-c3ccc(NC(=O)Cc4cc(F)ccc4F)cc3)c12.O=C(O)C(F)(F)F [SB-731254-M]
UNIT TAG: %
OBS VALUE: 9
--
MOLECULE: CNc1nccc(-c2ccc3c(N)n[nH]c3c2)n1 [GSK2206003]
UNIT TAG: %
OBS VALUE: 20
--
MOLECULE: CN(c1ccc(F)c(NC(=O)c2cccc(OC(C)(C)C#N)c2Cl)c1)c1ccc2nc(NC(=O)C3CC3)sc2n1
UNIT TAG: %
OBS VALUE: 89
--
MOLECULE: Cn1cc(-c2ccc3c(c2)CCN3C(=O)Cc2cc(F)cc(C(F)(F)F)c2)c2c(N)ncnc21 [GSK2635225]
UNIT TAG: %
OBS VALUE: 40
